molecular target: recombinant eIF4E (Homo sapiens (Human), UniProt P06730); test: Fluorescence polarization competition assay for eIF4E binding potency; details: fluorescence polarization competition, 75 nM recombinant eIF4E, 20 nM EDA-m7GDP-ATTO-550; IC50 class; read-out: elF4E FP
Sequence (P06730 whole entry): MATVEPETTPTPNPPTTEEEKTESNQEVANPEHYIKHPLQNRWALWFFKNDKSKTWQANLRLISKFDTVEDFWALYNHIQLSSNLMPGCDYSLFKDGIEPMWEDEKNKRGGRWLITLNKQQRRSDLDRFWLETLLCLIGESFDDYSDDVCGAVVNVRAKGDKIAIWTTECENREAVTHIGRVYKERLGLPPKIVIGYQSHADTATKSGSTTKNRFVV
quantityKind: IC50

- molecule: "Cc1cncc(-c2c(C(F)(F)F)cc3nc(C)n(CCOc4ccc(Cl)cc4-c4cc(C)nc5c(C(=O)O)csc45)c(=O)c3c2C#N)c1 [compound 775]"
  targetEntity: "recombinant eIF4E (Homo sapiens (Human), UniProt P06730)"
  recordedMeasurement: "< 50 nM"
- molecule: "Cc1nc2cnc(N(C)C3CCN(CC(F)(F)F)CC3)c(C#N)c2c(=O)n1CCOc1ccc(Cl)cc1-c1ccnc2c(C(=O)O)csc12 [compound 865]"
  targetEntity: "recombinant eIF4E (Homo sapiens (Human), UniProt P06730)"
  recordedMeasurement: "< 50 nM"
- molecule: "Cc1nc2cc(C(F)(F)F)c(CN3CCN(C)CC3)c(C#N)c2c(=O)n1CC#Cc1ccc(Cl)cc1-c1ccnc2c(C(=O)O)csc12 [compound 615]"
  targetEntity: "recombinant eIF4E (Homo sapiens (Human), UniProt P06730)"
  recordedMeasurement: "< 50 nM"
- molecule: "Cc1nc2cc(Cl)c(Cl)c(Cl)c2c(=O)n1CCOc1ccc(Cl)cc1-c1ccnc2c(C(=O)O)csc12 [compound 208]"
  targetEntity: "recombinant eIF4E (Homo sapiens (Human), UniProt P06730)"
  recordedMeasurement: "50 to 1000 nM"

Would you mind giving IC50 for every molecule in the list below?
1. Cc1cc(-c2cc(Cl)ccc2C#CCn2c(C)nc3cc(C(F)(F)F)c(Cl)c(C#N)c3c2=O)c2scc(C(=O)O)c2n1 [compound 561]
2. Cc1cc(-c2cc(Cl)ccc2OCCn2c(C)nc3cnc(N4C[C@H]5C[C@@H](C4)N5C)c(C#N)c3c2=O)c2sc(C)c(C(=O)O)c2n1 [compound 1202]
3. Cc1nc2cc(C#N)cc(C#N)c2c(=O)n1C/C=C/c1ccc(Cl)cc1-c1ccnc2c(C(=O)O)csc12 [compound 286]
4. COc1c(N)cc(-c2cc(Cl)ccc2OCCn2cnc3cnc(C#N)cc3c2=O)cc1C(=O)O [compound 114]

1. 50 to 1000 nM
2. < 50 nM
3. 50 to 1000 nM
4. 50 to 1000 nM
